Molecular target: T1, TIGIT on TIGIT-over expressing NFAT-Luc/Jurkat effector cells (GenScript reporter cell line) (UniProt Q495A1 22-244, limits assumed)
T1 sequence (looked up): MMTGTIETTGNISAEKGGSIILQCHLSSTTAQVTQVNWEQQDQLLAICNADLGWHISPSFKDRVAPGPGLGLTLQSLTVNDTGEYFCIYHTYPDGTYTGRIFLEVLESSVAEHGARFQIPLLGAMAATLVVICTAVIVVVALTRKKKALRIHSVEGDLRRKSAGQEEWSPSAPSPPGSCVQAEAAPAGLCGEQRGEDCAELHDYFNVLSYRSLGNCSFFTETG
Assay: cell-based or functional assay
quantity_kind: EC50 (nM)
Express your answer in nM, writing the number without its unit.

Req: What measured EC50 goes with TIGIT-19 chimeric antibody (antibody, human IgG1, kappa, V domains shown, also called 19VH + 19VL) VH: QVQLQQPGPELVKPGTSVMLSCKASGYAFSRYSMYWVKQSHGKSLEWIAFIDPYNGGSTYNQRFRGKATLTVDKSSSTAYMHLNTLTSDDSAVYYCARGGDYGWYLGVWGAGTTVTVSS VL: DIQMTQSPASLSASVGETVTITCRPSENIYTYLSWYQQKRGKSPQLLVYNAKTLPENVPSRFSGSGSGTQFSLKIDSLQPEDFGNYYCQHHYGNPLTFGAGTKLELKR ?
Resp: 2.75

Req: What measured EC50 goes with huTIGIT-6-1 (antibody, human IgG1, kappa, V domains shown, Humanized IgG; also called 6VH6.M4 + 6VL1.M1) VH: QVQLVQSGAEVKKPGASVKVSCKASGYTITENTMHWVRQAPGQRLEWIGGINPNQGGTSYSQKFQGRATLTVDTSASTAYMELSSLRSEDTAVYYCTRSSYYRYDLDYWGQGTTVTVSS VL: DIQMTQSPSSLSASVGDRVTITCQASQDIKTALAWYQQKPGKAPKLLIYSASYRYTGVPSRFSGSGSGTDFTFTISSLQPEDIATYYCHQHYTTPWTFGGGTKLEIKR ?
Resp: 9.1

Req: What measured EC50 goes with huTIGIT-19-1 (antibody, human IgG1, kappa, V domains shown, Humanized IgG; also called 19VH4.M9 + 19VL1.M4) VH: QVQLVQSGAEVKKPGASVKVSCKASGYTFTRYSMYWVRQAPGQGLEWIAFIDAYSGGSTYNQRFRGKATLTVDTSISTAYMELSRLRSDDTAVYYCARGGDYGWYLGVWGQGTLVTVSS VL: DIQMTQSPSSLSASVGDRVTITCRPSENIYTYLSWYQQKPGKAPKLLIYNAKSLPSGVPSRFSGSGSGTDFTLTISSLQPEDFATYYCQHHYGNPLTFGQGTKVEIKR ?
Resp: 2.05
